# credit: ChEMBL document CHEMBL1142646

System Under Test: Growth hormone secretagogue receptor type 1 (Homo sapiens, UniProt Q92847)
Sequence (Q92847 whole entry): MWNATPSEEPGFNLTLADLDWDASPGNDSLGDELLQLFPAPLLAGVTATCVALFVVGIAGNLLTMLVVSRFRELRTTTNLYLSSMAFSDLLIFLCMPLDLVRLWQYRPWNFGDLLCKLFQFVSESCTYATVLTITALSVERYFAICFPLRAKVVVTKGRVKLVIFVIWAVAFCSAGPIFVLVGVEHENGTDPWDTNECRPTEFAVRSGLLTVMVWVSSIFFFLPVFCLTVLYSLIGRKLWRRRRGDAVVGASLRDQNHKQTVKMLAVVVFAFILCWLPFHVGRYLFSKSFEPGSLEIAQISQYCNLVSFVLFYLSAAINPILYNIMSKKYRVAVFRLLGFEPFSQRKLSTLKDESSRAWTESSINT
Measurement Description: Maximum intrinsic activity against human growth hormone secretagogues at a concentration of 10 uM
Type: functional
Attribute: Activity
Form entry: value (%) — number only.

Field: example entries. Status: answers known.
* CC(C)N(CCNC(=O)C1c2ccc(OCc3ccccc3)cc2CCN1C(=O)C(C)(C)C)C(C)C (stereo not drawn) | 50
* CC(C)N(CCNC(=O)C1c2ccc(OCc3ccccc3)cc2CCN1S(C)(=O)=O)C(C)C (stereo not drawn) | 47
* CC(C)N(CCNC(=O)C1c2ccc(OCc3ccccc3)cc2CCN1C(=O)Nc1ccccc1)C(C)C (stereo not drawn) | 43
* CCCCS(=O)(=O)N1CCc2cc(OCc3ccccc3)ccc2C1C(=O)NCCN(C(C)C)C(C)C (stereo not drawn) | 50
* CN(C)CCNC(=O)C1c2ccc(OCc3ccccc3)cc2CCN1C(=O)OC(C)(C)C (stereo not drawn) | 46
* CCOc1ccccc1C(=O)N1CCc2cc(OCc3ccccc3)ccc2C1C(=O)NCCN(C(C)C)C(C)C (stereo not drawn) | 30

We now examine a further molecule.
Please indicate Activity recorded for CC(C)(N)CNC(=O)C1c2ccc(OCc3ccccc3)cc2CCN1C(=O)OC(C)(C)C (stereo not drawn)
47
